# Test system: PPARg:RXRa 30nM:10nM, anti-RXR (NR concentration 30 nM, RXRa partner concentration 10 nM)
# measurement-notes: PBM binding z-score (relative to random genomic background probes); higher = stronger binding; sequences stand for … in GC…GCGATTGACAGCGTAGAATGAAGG

{"columns": ["macromolecule-sequence", "PBM binding z-score"],
 "data": [
  ["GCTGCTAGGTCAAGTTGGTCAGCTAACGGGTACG", 0.55],
  ["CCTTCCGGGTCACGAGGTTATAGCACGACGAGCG", 3.82],
  ["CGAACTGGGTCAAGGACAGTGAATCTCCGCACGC", 2.89],
  ["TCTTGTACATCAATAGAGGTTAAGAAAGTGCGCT", 3.01],
  ["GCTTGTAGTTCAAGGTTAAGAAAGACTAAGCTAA", 0.473],
  ["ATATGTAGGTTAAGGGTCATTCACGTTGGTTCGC", 9.95],
  ["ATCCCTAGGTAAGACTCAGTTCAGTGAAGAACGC", -0.259],
  ["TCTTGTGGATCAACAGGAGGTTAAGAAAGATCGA", 2.49],
  ["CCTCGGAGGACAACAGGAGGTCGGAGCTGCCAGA", -0.792],
  ["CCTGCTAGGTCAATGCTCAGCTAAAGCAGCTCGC", -0.451],
  ["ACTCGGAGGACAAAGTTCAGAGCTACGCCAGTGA", 3.37],
  ["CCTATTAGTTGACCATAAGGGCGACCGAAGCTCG", -0.288]
]}
